# assay_name: NCI Yeast Anticancer Drug Screen. Data for the mec2-1 strain (AID 157)
# condition_details: S. cerevisiae mec2-1 strain, at 50.0 µM (retest, dose inferred, filed as 5.0)
Compounds without any hit were thinned out: in the full panel of roughly 79,000, 15% have a hit. Activity calls are given as the source filed them. Rule as the data show it: active = growth inhibition above about 70%; inactive = the rest.
Please answer using one outcome listed in T for active, F for inactive

compound	class_label
NC(=O)N/N=C(/Cc1nc2ccccc2nc1C/C(=N/NC(N)=O)c1cccc2ccccc12)c1cccc2ccccc12	F
CC(/C=N/NS(=O)(=O)c1ccc(C)cc1)=C(c1ccccc1)c1ccccc1	T
O=[N+]([O-])c1cccc(C=Nc2ccccc2O)c1	F
O=C(O)CCc1ccc2ccccc2c1	F
CCCCCCCCCCCC(=O)OCC1CO1 (stereo not drawn)	F

Exam item: For COc1ccc(OC)c(C[P+](c2ccccc2)(c2ccccc2)c2ccccc2)c1 , what call appears in the results of this test?
Marked response: T

Exam item: Identify the outcome logged in this assay for the compound shown: CCCC[NH-].CCCC[NH-].[I][Pt+2][I]
Marked response: F

Exam item: Could you kindly confirm the outcome this assay logged for Oc1c(Cl)cc(C(c2cc(Cl)c(O)c(Cl)c2)C(c2cc(Cl)c(O)c(Cl)c2)c2cc(Cl)c(O)c(Cl)c2)cc1Cl ?
Marked response: T

The reported numbers originate from PubChem BioAssay (NCI).
